tested on: secondary alcohol dehydrogenase; test: Activity of purified yeast-derived secondary alcohol dehydrogenase; assay type: biochemical, Pichia sp. NRRL Y-11,328; details: spectrophotometric
READOUT_NAME: substrate specificity of purified yeast secondary alcohol dehydrogenase (in words)

>  <MOLECULE>
CC(O)CO (stereo not drawn)

>  <EXPERIMENTAL_RESULT>
not oxidized

$$$$
>  <MOLECULE>
CCCCCO

>  <EXPERIMENTAL_RESULT>
not oxidized

$$$$
>  <MOLECULE>
CCCCCC(C)O (stereo not drawn)

>  <EXPERIMENTAL_RESULT>
not oxidized

$$$$

---

Reported Conversion Rate, sec-alcohol to ketone values for a set of compounds
system: Pichia sp. NRRL-Y-11328; assay: Oxidation of sec-alcohols to ketones by cell suspensions of yeasts; assay type: cell-based; conditions: growth substrate Methylamine

>  <COMPOUND>
CC(C)O

>  <EXPERIMENTAL_RESULT>
4.2 μmoles/hr/mg of protein

$$$$
>  <COMPOUND>
CCC(C)O (stereo not shown)

>  <EXPERIMENTAL_RESULT>
5.1 μmoles/hr/mg of protein

$$$$
>  <COMPOUND>
CCCCC(C)O (stereo not shown)

>  <EXPERIMENTAL_RESULT>
0.31 μmoles/hr/mg of protein

$$$$

Query string: What does the record list as Conversion Rate, sec-alcohol to ketone for CCCC(C)O (stereo not shown) ?
Result string: 0.72 μmoles/hr/mg of protein

---

tested on: Hansenula polymorpha ATCC 26012; test: Oxidation of sec-alcohols to ketones by cell suspensions of yeasts; format: cell-based; details: growth substrate Methanol
READOUT_NAME: Conversion Rate, sec-alcohol to ketone

>  <MOLECULE>
CCC(C)O (stereo not shown)

>  <Conversion Rate, sec-alcohol to ketone>
5.8 μmoles/hr/mg of protein

$$$$
>  <MOLECULE>
CCCC(C)O (stereo not shown)

>  <Conversion Rate, sec-alcohol to ketone>
1.4 μmoles/hr/mg of protein

$$$$
>  <MOLECULE>
CC(C)O

>  <Conversion Rate, sec-alcohol to ketone>
5.9 μmoles/hr/mg of protein

$$$$

Switching to the query record.
Query string: What does the record list as Conversion Rate, sec-alcohol to ketone for CCCCC(C)O (stereo not shown) ?
Result string: 0.72 μmoles/hr/mg of protein

---

tested on: Kloeckera sp. Strain A2 (NRRL Y-11,420); test: Oxidation of sec-alcohols to ketones by cell suspensions of yeasts; format: cell-based; conditions: growth substrate Methylformate
READOUT_NAME: Conversion Rate, sec-alcohol to ketone

Worked cases, Conversion Rate, sec-alcohol to ketone given:
>  <COMPOUND>
CCC(C)O (stereo not shown)

>  <EXPERIMENTAL_RESULT>
5.9 μmoles/hr/mg of protein

$$$$
>  <COMPOUND>
CCCC(C)O (stereo not shown)

>  <EXPERIMENTAL_RESULT>
1.2 μmoles/hr/mg of protein

$$$$
>  <COMPOUND>
CC(C)O

>  <EXPERIMENTAL_RESULT>
4.9 μmoles/hr/mg of protein

$$$$

Query string: What does the record list as Conversion Rate, sec-alcohol to ketone for CCCCC(C)O (stereo not shown) ?
Result string: 0.28 μmoles/hr/mg of protein

---

Reported Conversion Rate, sec-alcohol to ketone values for a set of compounds
test system: Hansenula polymorpha ATCC 26012; assay: Oxidation of sec-alcohols to ketones by cell suspensions of yeasts; assay type: cell-based; settings: growth substrate Methylformate

Query string: What does the record list as Conversion Rate, sec-alcohol to ketone for CCCCC(C)O (stereo not shown) ?
Result string: 0.70 μmoles/hr/mg of protein

---

tested on: Methylococcus capsulatus (Texas, ATCC 19,069); assay: Conversion of n-alkanes to secondary alcohols by cell suspensions; assay type: cell-based; details: growth substrate Methane
Reported Conversion Rate, n-alkane to secondary alcohol values for a set of molecules
Number in μmoles/hr/^5 mg. protein, nothing else.

Worked cases, Conversion Rate, n-alkane to secondary alcohol given:
>  <STRUCTURE_SMILES_STRING>
CCC

>  <EXPERIMENTAL_RESULT>
1.1

$$$$
>  <STRUCTURE_SMILES_STRING>
CCCC

>  <EXPERIMENTAL_RESULT>
1.0

$$$$
>  <STRUCTURE_SMILES_STRING>
CCCCCC

>  <EXPERIMENTAL_RESULT>
0.01

$$$$

Switching to the query record.
Query string: What does the record list as Conversion Rate, n-alkane to secondary alcohol for CCCCC ?
Result string: 0.032

---

Reported Conversion Rates, sec-alcohol to methyl ketone values for a set of compounds
system: Methylosinus trichosporium OB3b (NRRL B-11,196); experiment: Oxidation of sec-alcohols to ketones by resting cell suspension; format: cell-based; settings: cells grown on methanol
Number in μmoles/hr/mg protein, nothing else.

Worked cases, Conversion Rates, sec-alcohol to methyl ketone given:
>  <COMPOUND>
CCCCC(C)O (stereo not shown)

>  <UNIT_SYMBOL>
μmoles/hr/mg protein

>  <EXPERIMENTAL_RESULT>
0.9

$$$$
>  <COMPOUND>
CCCC(C)O (stereo not shown)

>  <UNIT_SYMBOL>
μmoles/hr/mg protein

>  <EXPERIMENTAL_RESULT>
2.9

$$$$

Query string: What does the record list as Conversion Rates, sec-alcohol to methyl ketone for CC(C)O ?
Result string: 0.30

Query string: What does the record list as Conversion Rates, sec-alcohol to methyl ketone for CCC(C)O (stereo not shown) ?
Result string: 4.1

---

Reported Conversion Rates, sec-alcohol to methyl ketone values for a set of compounds
test system: Methylosinus trichosporium OB3b (NRRL B-11,196); experiment: Oxidation of sec-alcohols to ketones by resting cell suspension; format: cell-based; details: resting cells grown on methane

Worked cases, Conversion Rates, sec-alcohol to methyl ketone given:
>  <COMPOUND>
CC(C)O [2-Propanol, 2-propanol]

>  <EXPERIMENTAL_RESULT>
0.25 μmoles/hr/mg protein

$$$$
>  <COMPOUND>
CCCCC(C)O (stereo not shown) [2-Hexanol, 2-hexanol]

>  <EXPERIMENTAL_RESULT>
0.07 μmoles/hr/mg protein

$$$$
>  <COMPOUND>
CCC(C)O (stereo not shown) [2-Butanol, 2-butanol]

>  <EXPERIMENTAL_RESULT>
3.7 μmoles/hr/mg protein

$$$$

Switching to the query record.
Query string: Report Conversion Rates, sec-alcohol to methyl ketone for CCCC(C)O (stereo not shown) [2-Pentanol, 2-pentanol] tested on Methylosinus trichosporium OB3b (NRRL B-11,196).
Result string: 2.7 μmoles/hr/mg protein

---

system: Pichia sp. NRRL-Y-11328; assay: Oxidation of sec-alcohols to ketones by cell suspensions of yeasts; type: cell-based; conditions: growth substrate Methanol
READOUT_NAME: Conversion Rate, sec-alcohol to ketone

>  <COMPOUND>
CC(C)O

>  <Conversion Rate, sec-alcohol to ketone>
5.2 μmoles/hr/mg of protein

$$$$
>  <COMPOUND>
CCC(C)O (stereo not shown)

>  <Conversion Rate, sec-alcohol to ketone>
6.8 μmoles/hr/mg of protein

$$$$
>  <COMPOUND>
CCCCC(C)O (stereo not shown)

>  <Conversion Rate, sec-alcohol to ketone>
0.50 μmoles/hr/mg of protein

$$$$

Switching to the query record.
Query string: Report Conversion Rate, sec-alcohol to ketone for CCCC(C)O (stereo not shown) tested on Pichia sp. NRRL-Y-11328.
Result string: 1.2 μmoles/hr/mg of protein

---

tested on: Torulopsis sp. Strain A1 (NRRL Y-11,419); test: Oxidation of sec-alcohols to ketones by cell suspensions of yeasts; assay type: cell-based; conditions: growth substrate Propylamine
READOUT_NAME: Conversion Rate, sec-alcohol to ketone

>  <MOLECULE>
CCCCC(C)O (stereo not shown) [2-Hexanol, 2-hexanol]

>  <TGT>
Torulopsis sp. Strain A1 (NRRL Y-11,419)

>  <Conversion Rate, sec-alcohol to ketone>
0.10 μmoles/hr/mg of protein

$$$$
>  <MOLECULE>
CCCC(C)O (stereo not shown) [2-Pentanol, 2-pentanol]

>  <TGT>
Torulopsis sp. Strain A1 (NRRL Y-11,419)

>  <Conversion Rate, sec-alcohol to ketone>
0.62 μmoles/hr/mg of protein

$$$$
>  <MOLECULE>
CC(C)O [2-Propanol, 2-propanol]

>  <TGT>
Torulopsis sp. Strain A1 (NRRL Y-11,419)

>  <Conversion Rate, sec-alcohol to ketone>
3.2 μmoles/hr/mg of protein

$$$$

Switching to the query record.
Query string: What does the record list as Conversion Rate, sec-alcohol to ketone for CCC(C)O (stereo not shown) [2-Butanol, 2-butanol] ?
Result string: 3.8 μmoles/hr/mg of protein

---

test system: Methylococcus capsulatus, Texas (ATCC 19069); experiment: Oxidation of sec-alcohols to ketones by resting cell suspension; type: cell-based; settings: cells grown on methanol
READOUT_NAME: Conversion Rates, sec-alcohol to methyl ketone (μmoles/hr/mg protein)
Number in μmoles/hr/mg protein, nothing else.

Worked cases, Conversion Rates, sec-alcohol to methyl ketone given:
>  <COMPOUND>
CCC(C)O (stereo not shown)

>  <EXPERIMENTAL_RESULT>
0.70

$$$$
>  <COMPOUND>
CC(C)O

>  <EXPERIMENTAL_RESULT>
0.75

$$$$
>  <COMPOUND>
CCCCC(C)O (stereo not shown)

>  <EXPERIMENTAL_RESULT>
1.3

$$$$

Switching to the query record.
Query string: What does the record list as Conversion Rates, sec-alcohol to methyl ketone for CCCC(C)O (stereo not shown) ?
Result string: 3.5
